Reference source: ChEMBL document CHEMBL2169776

Test: Hemolytic activity against human RBCs after 1 hr by spectrophotometry
Format: ADME, cell-based
Details: erythrocyte
Square brackets hold non-standard residues; d marks the D form. Peptide text beside a SMILES is read from it. Nphe = O=C(O)CNCc1ccccc1; Nlys = NCCCCNCC(=O)O
Each record here notes measured HC10.

[
  {
    "molecule": "CC(=O)N(CCCCN)CC(=O)N[C@@H](Cc1ccccc1)C(=O)N(CCCCN)CC(=O)N[C@@H](Cc1ccccc1)C(=O)N(CCCCN)CC(=O)N[C@@H](Cc1ccccc1)C(=O)N(CCCCN)CC(=O)N[C@@H](Cc1ccccc1)C(=O)N(CCCCN)CC(=O)N[C@@H](Cc1ccccc1)C(=O)N(CCCCN)CC(=O)N[C@@H](Cc1ccccc1)C(=O)N(CCCCN)CC(=O)N[C@@H](Cc1ccccc1)C(=O)N(CCCCN)CC(=O)N[C@@H](Cc1ccccc1)C(N)=O (Ac-[Nlys]F[Nlys]F[Nlys]F[Nlys]F[Nlys]F[Nlys]F[Nlys]F[Nlys]F-NH2)",
    "HC10": "> 128 µM"
  },
  {
    "molecule": "CC(=O)N[C@@H](CCCCN)C(=O)N[C@H](CC(=O)N[C@@H](CCCCN)C(=O)N[C@H](CC(=O)N[C@@H](CCCCN)C(=O)N[C@H](CC(=O)N[C@@H](CCCCN)C(=O)N[C@H](CC(=O)N[C@@H](CCCCN)C(=O)N[C@H](CC(=O)N[C@@H](CCCCN)C(=O)N[C@H](CC(=O)N[C@@H](CCCCN)C(=O)N[C@H](CC(=O)N[C@@H](CCCCN)C(=O)N[C@H](CC(N)=O)Cc1ccccc1)Cc1ccccc1)Cc1ccccc1)Cc1ccccc1)Cc1ccccc1)Cc1ccccc1)Cc1ccccc1)Cc1ccccc1",
    "HC10": "64 µM"
  },
  {
    "molecule": "CC(=O)N[C@@H](CCCCN)C(=O)N(CC(=O)N[C@@H](CCCCN)C(=O)N(CC(=O)N[C@@H](CCCCN)C(=O)N(CC(=O)N[C@@H](CCCCN)C(=O)N(CC(=O)N[C@@H](CCCCN)C(=O)N(CC(=O)N[C@@H](CCCCN)C(=O)N(CC(=O)N[C@@H](CCCCN)C(=O)N(CC(=O)N[C@@H](CCCCN)C(=O)N(CC(N)=O)Cc1ccccc1)Cc1ccccc1)Cc1ccccc1)Cc1ccccc1)Cc1ccccc1)Cc1ccccc1)Cc1ccccc1)Cc1ccccc1 (Ac-K[Nphe]K[Nphe]K[Nphe]K[Nphe]K[Nphe]K[Nphe]K[Nphe]K[Nphe]-NH2)",
    "HC10": "> 128 µM"
  },
  {
    "molecule": "CC(=O)N(CCCCN)CCC(=O)N(CCC(=O)N(CCCCN)CCC(=O)N(CCC(=O)N(CCCCN)CCC(=O)N(CCC(=O)N(CCCCN)CCC(=O)N(CCC(=O)N(CCCCN)CCC(=O)N(CCC(=O)N(CCCCN)CCC(=O)N(CCC(=O)N(CCCCN)CCC(=O)N(CCC(=O)N(CCCCN)CCC(=O)N(CCC(N)=O)Cc1ccccc1)Cc1ccccc1)Cc1ccccc1)Cc1ccccc1)Cc1ccccc1)Cc1ccccc1)Cc1ccccc1)Cc1ccccc1",
    "HC10": "> 128 µM"
  },
  {
    "molecule": "CC(=O)N[C@H](CCCCN)C(=O)N[C@H](Cc1ccccc1)C(=O)N[C@H](CCCCN)C(=O)N[C@H](Cc1ccccc1)C(=O)N[C@H](CCCCN)C(=O)N[C@H](Cc1ccccc1)C(=O)N[C@H](CCCCN)C(=O)N[C@H](Cc1ccccc1)C(=O)N[C@H](CCCCN)C(=O)N[C@H](Cc1ccccc1)C(=O)N[C@H](CCCCN)C(=O)N[C@H](Cc1ccccc1)C(=O)N[C@H](CCCCN)C(=O)N[C@H](Cc1ccccc1)C(=O)N[C@H](CCCCN)C(=O)N[C@H](Cc1ccccc1)C(N)=O",
    "HC10": "< 1 µM"
  }
]
